measurement.target: T1, recombinant mouse ErbB2-ECD (mouse, UniProt P70424 23-653)
T1 construct: extracellular domain
T1 sequence (P70424 23-653): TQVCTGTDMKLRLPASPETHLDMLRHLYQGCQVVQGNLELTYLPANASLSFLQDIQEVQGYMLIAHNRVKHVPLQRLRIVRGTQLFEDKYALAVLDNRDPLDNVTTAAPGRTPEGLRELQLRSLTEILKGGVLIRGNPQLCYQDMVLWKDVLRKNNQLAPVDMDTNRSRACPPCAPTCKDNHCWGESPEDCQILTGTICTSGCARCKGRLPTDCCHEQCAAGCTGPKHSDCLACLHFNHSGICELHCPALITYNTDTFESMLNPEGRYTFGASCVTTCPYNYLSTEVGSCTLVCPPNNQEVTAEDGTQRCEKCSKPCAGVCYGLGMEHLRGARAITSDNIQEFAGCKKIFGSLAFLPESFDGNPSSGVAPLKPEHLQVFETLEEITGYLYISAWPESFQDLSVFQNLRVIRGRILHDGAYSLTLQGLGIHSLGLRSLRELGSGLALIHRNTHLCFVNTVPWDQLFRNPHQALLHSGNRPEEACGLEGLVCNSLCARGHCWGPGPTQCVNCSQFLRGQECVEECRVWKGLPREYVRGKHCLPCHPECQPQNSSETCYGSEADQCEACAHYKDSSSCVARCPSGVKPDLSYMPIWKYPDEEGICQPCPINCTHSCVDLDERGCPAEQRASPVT
protocol: indirect ELISA, coated ErbB2-ECD

{"binder": "5G9 chimera (antibody, V domains shown, also called 5G9 chimeric; 5G9 chimeric antibody) VH: QVQLQQSGAELARPGASVKMSCKTSGYTFSSYTIHWVKQRPGQGLDWIGYINPSSDYTAYNQKFRDKATLTADQSSNTAYMQLSSLASADSAVYYCARASAFSLDFWGQGTTLTVSS VL: DIQMTQSPSSLSASLGGKVTISCKASHDIDRYIAWYQHKPGKGPRLLIHYTSTLQPGIPSRFSGSGSGRDYSFSISNLEPEDVATYYCLNYDNLLWTFGGGTKLEIT", "binding result": "no binding"}
{"binder": "4C9 chimera (antibody, V domains shown, also called 4C9 chimeric antibody) VH: QVQLQQSGAELARPGASVKMSCKASGYTFTSYTMHWVKQRPGQGLDWIGYINPSSGYTTYNQKFKDKATLTADKSSSTAYMQLSSLASADSAVYYCARASAYSLDYWGQGTTLTVSS VL: DIQMTQSPSSLSASLGGRVTITCKASHDIDRYIAWYQHKPGKGPRLLIHYTSTLQPGIPSRFSGSGSGRDYSFSISNLEPEDIATYYCLKYDNLLWTFGGGTKLEIT", "binding result": "no binding"}

Reference source for all entries: patent US20200002434A1
